Biological target: GLP-1 receptor
Conditions: CHO/GLP-1R, competition with 125I-GLP-1; fusion polypeptides after treatment with thrombin and DPP IV; read-out: Receptor binding affinity IC50
value.kind: IC50 (nM)
Field format: number, assumed nM, no unit text.

Here are 5 sequences together with their reported answers.
PNICLPRWGCLWDFNPRGA HAEGTFTSDVSSYLEGQAAKEFIAWLVKGRG [DP4.1]    2.5
LPHSHRAHSLPPFNPRPA HAEGTFTSDVSSYLEGQAAKEFIAWLVKGRG [PA6.2]    2.2
PLPHSHRAHSLPPFNPRGP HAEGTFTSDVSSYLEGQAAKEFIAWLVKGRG [DP6.2]    2.1
LPHSHRAHSLPPFNPRPP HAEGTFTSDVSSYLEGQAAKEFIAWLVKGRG [PP6.2]    2.3
PDICLPRWGCLWEFNPRGA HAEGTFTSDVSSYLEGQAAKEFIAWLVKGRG [DP3.1]    2.1

// field: IC50; key: PSSLLHWTHKIPALFNPRGS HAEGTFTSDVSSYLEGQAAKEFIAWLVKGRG [DP8.3] ; value = 2.5
